- Assay name: NCI Yeast Anticancer Drug Screen. Data for the cln2 rad14 strain (AID 165);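 further: 0% = growth equal to vehicle treated cultures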
- Stated conditions: S. cerevisiae cln2 rad14 strain, at 50.0 µM, active compounds read high
This is part of a sample that, as a whole, favours compounds with a hit. Of some 79,000 tested, about 15% had one in any assay.
Quantity measured: growth inhibition (%)
Record the value in %, omitting the unit from your answer.

compound=CC(=O)NCCNC(=O)c1ccc(C)c(OCc2ccccc2)c1[N+](=O)[O-] unit_spec=% reading=-26.2
compound="OC(CCNC12CC3CC(CC(C3)C1)C2)c1ccccc1 (stereo not drawn)" unit_spec=% reading=50.5
compound=O=C(N=C1SCCN1C(=O)C(C(F)(F)F)C(F)(F)F)C(C(F)(F)F)C(F)(F)F unit_spec=% reading=28.4
compound=COc1ccc(N=NN(C(C)=O)c2ccccc2)cc1 unit_spec=% reading=-5.75
compound=C=C1C(=O)O[C@@H]2/C=C(\C)CC/C=C(/COC(C)=O)C[C@@H](OC(C)=O)[C@@H]12 unit_spec=% reading=0.35

Read the next record carefully.
Input: Please look up its growth inhibition: `Cc1ccccc1NCc1ccccc1`
Output: -29.8
